test: Midostaurin PK when administered with rifampicin; settings: human, plasma, oral, AUC0–inf, adjusted geometric mean, plasma; Rifampicin + midostaurin arm (midostaurin 50 mg once, rifampicin 600 mg daily), n = 20
observation_type: AUC(0-inf) (ng·h/mL)
Numbers only, in ng·h/mL.

## Input For CO[C@@H]1[C@H](N(C)C(=O)c2ccccc2)C[C@H]2O[C@]1(C)n1c3ccccc3c3c4c(c5c6ccccc6n2c5c31)C(=O)NC4 , write its AUC(0-inf).
## Output 1350

* * *

experiment: Midazolam PK when administered with midostaurin; conditions: human, plasma, oral, 4 mg
observation_type: Tmax
Respond with the figure and its unit, in that order.

## Input For Cc1ncc2n1-c1ccc(Cl)cc1C(c1ccccc1F)=NC2 , write its Tmax.
## Output 30 min
